Below, each entry is listed with its recorded IC50.
molecular target: PHGDH (Homo sapiens (Human), UniProt O43175); assay: 3-Phosphoglycerate Dehydrogenase (PHGDH) Fluorescence Intensity Assay, run at two NAD/3-PG ratios: PHGDH_HIGH_NAD/3-PG (250 μM NAD/500 μM 3-PG) and PHGDH_500_NAD/3-PG (500 μM NAD/500 μM 3-PG); assay type: biochemical; conditions: 500 μM NAD/500 μM 3-PG; read-out: IC50 (PHGDH_500_NAD/3-PG)
Sequence (O43175 2-533 limits assumed): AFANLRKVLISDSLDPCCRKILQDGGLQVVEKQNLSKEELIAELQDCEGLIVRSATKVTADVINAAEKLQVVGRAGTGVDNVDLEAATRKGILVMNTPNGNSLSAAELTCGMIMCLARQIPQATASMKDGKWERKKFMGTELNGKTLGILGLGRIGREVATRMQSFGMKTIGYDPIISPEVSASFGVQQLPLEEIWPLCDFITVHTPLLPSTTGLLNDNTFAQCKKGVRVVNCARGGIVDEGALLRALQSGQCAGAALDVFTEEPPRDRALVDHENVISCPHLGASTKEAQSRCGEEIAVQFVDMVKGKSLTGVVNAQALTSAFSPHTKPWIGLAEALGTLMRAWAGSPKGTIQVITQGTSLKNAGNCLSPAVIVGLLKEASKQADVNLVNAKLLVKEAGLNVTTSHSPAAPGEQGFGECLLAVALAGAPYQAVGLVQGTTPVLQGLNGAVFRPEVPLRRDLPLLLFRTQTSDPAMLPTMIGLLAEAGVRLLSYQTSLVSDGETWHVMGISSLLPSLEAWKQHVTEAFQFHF
Please format your answer as a value with the unit trailing.

smiles_entry=Cc1cc2c(cc(C(=O)N[C@H](CO)c3ccc(S(=O)(=O)CC(=O)O)cc3)n2C)c(F)c1F target_desc="PHGDH (Homo sapiens (Human), UniProt O43175)" outcome_measure=IC50 endpoint_value="17 nM"
smiles_entry=Cc1cc2c(cc(C(=O)N[C@H](C)c3ccc(S(=O)(=O)C(C)(C)C(=O)O)cc3)n2C)c(Cl)c1Cl target_desc="PHGDH (Homo sapiens (Human), UniProt O43175)" outcome_measure=IC50 endpoint_value="9 nM"
smiles_entry=C[C@@H](NC(=O)c1cc(-c2cccc3cc[nH]c23)nn1C)c1ccc(S(=O)(=O)CC(=O)O)cc1 target_desc="PHGDH (Homo sapiens (Human), UniProt O43175)" outcome_measure=IC50 endpoint_value="87 nM"

Now for another entry.
Task item: Give its IC50 value. Item: Cc1cc(Cl)c2cc(C(=O)N[C@H](C)c3ccc(S(=O)(=O)C4(C(=O)O)CC4)cc3)n(C)c2c1
Reply: 15 nM

###

biological target: PHGDH (Homo sapiens (Human)); test: 3-Phosphoglycerate Dehydrogenase (PHGDH) Fluorescence Intensity Assay, run at two NAD/3-PG ratios: PHGDH_HIGH_NAD/3-PG (250 μM NAD/500 μM 3-PG) and PHGDH_500_NAD/3-PG (500 μM NAD/500 μM 3-PG); assay type: biochemical; settings: 250 μM NAD/500 μM 3-PG; read-out: IC50 (PHGDH_HIGH_NAD/3-PG)
Outcome Measure: IC50 (µM)
Reply numerically in µM, unit not repeated.

smiles_entry=COc1cc(-c2cc(C(=O)N[C@H](C)c3ccc(S(=O)(=O)CC(=O)OC(C)C)cc3)n(C)n2)ccc1Cl endpoint_value=6.12
smiles_entry=CCOCCOCCOC(=O)CS(=O)(=O)c1ccc([C@@H](C)NC(=O)c2cc3c(Cl)cc(C)cc3n2C)cc1 endpoint_value=0.289
smiles_entry=COC(=O)C1(S(=O)(=O)c2ccc([C@@H](C)NC(=O)c3cc(-c4ccc(F)cc4)nn3C)cc2)CCCC1 endpoint_value=11.7
smiles_entry=Cc1cc2c(cc(C(=O)N[C@H](CO)c3ccc([S@@+]([O-])CC(=O)OC(C)C)cc3)n2C)c(Cl)c1Cl endpoint_value=0.819
smiles_entry=Cc1cc(Cl)c2cc(C(=O)N[C@H](CO)c3ccc(S(=O)(=O)CC(=O)OCCCO)cc3)n(C)c2c1 endpoint_value=0.098

Task item: Lab request: please report IC50 under test system PHGDH (Homo sapiens (Human)) for CC(C)OC(=O)CS(=O)(=O)c1ccc([C@@H](CO)NC(=O)c2cc(-c3ccc(F)cc3)nn2C)cc1
Reply: 7.71

###

# IC50 listing for each entry below
biological target: PHGDH (Homo sapiens (Human)); assay: 3-Phosphoglycerate Dehydrogenase (PHGDH) Fluorescence Intensity Assay, run at two NAD/3-PG ratios: PHGDH_HIGH_NAD/3-PG (250 μM NAD/500 μM 3-PG) and PHGDH_500_NAD/3-PG (500 μM NAD/500 μM 3-PG); format: biochemical; conditions: 500 μM NAD/500 μM 3-PG; read-out: IC50 (PHGDH_500_NAD/3-PG)
State just the number; it will be interpreted in nM.

Some solved cases for reference:
compound="C[C@@H](NC(=O)c1cc(-c2ccc(F)cc2)nn1C)c1ccc(S(=O)(=O)C2(C(=O)O)CCCC2)cc1 [Example 08-002]" outcome_measure=IC50 unit_string=nM endpoint_value=95
compound="Cc1cc2c(cc(C(=O)N[C@H](CO)c3ccc(S(=O)(=O)CC(=O)OCCCO)cc3)n2C)c(F)c1F [Example 09-038]" outcome_measure=IC50 unit_string=nM endpoint_value=255
compound="Cn1nc(-c2ccc(F)cc2)cc1C(=O)N[C@H](CO)c1ccc(S(=O)(=O)CC(=O)O)cc1 [Example 04-004]" outcome_measure=IC50 unit_string=nM endpoint_value=299
compound="Cc1cc2c(cc(C(=O)N[C@H](CO)c3ccc([S+]([O-])CC(=O)OC(C)C)cc3)n2C)c(F)c1F (some centres unmarked) [Example 13-010]" outcome_measure=IC50 unit_string=nM endpoint_value=1060

Task item: Need IC50, item Cc1cc2c(cc(C(=O)N[C@H](CO)c3ccc(S(=O)(=O)CC(=O)OCC(C)(C)CO)cc3)n2C)c(Cl)c1Cl [Example 09-044]
Reply: 419

Task item: And then Cc1cc2c(cc(C(=O)N[C@H](C)c3ccc([S+]([O-])CC(=O)O)cc3)n2C)c(Cl)c1Cl (some centres unmarked) [Example 12-008] , what is it?
Reply: 8

Task item: Moving on to Cc1cc2c(cc(C(=O)N[C@H](CO)c3ccc([S@@+]([O-])CC(=O)O)cc3)n2C)c(Cl)c1Cl [Example 12-001]
Reply: 9

Task item: And Cc1cc2c(cc(C(=O)N[C@H](CO)c3ccc([S+]([O-])CC(=O)O)cc3)n2C)c(Cl)c1Cl (some centres unmarked) [Example 12-003] ?
Reply: 5

Task item: // next record Cc1cc2c(cc(C(=O)N[C@H](CO)c3ccc(S(=O)(=O)CC(=O)OCC(C)(C)CO)cc3)n2C)c(F)c1F [Example 09-042]
Reply: 509

Task item: Now the compound Cc1cc2c(cc(C(=O)N[C@H](CO)c3ccc([S@@+]([O-])CC(=O)OC(C)C)cc3)n2C)c(Cl)c1Cl [Example 13-002]
Reply: 1020

Task item: Again, but for Cc1cc2c(cc(C(=O)N[C@H](CO)c3ccc([S@+]([O-])CC(=O)OC4CCOCC4)cc3)n2C)c(Cl)c1Cl [Example 13-005]
Reply: 191

Task item: Now the compound C[C@@H](NC(=O)c1cc2c(Cl)cc(N3CCN(C)CC3)cc2n1C)c1ccc(S(=O)(=O)CC(=O)O)cc1 [Example 03-018]
Reply: 292

Task item: What about COC(=O)C[S@+]([O-])c1ccc([C@@H](CO)NC(=O)c2cc3c(Cl)c(Cl)c(C)cc3n2C)cc1 [Example 11-003] ?
Reply: 137

Task item: Request: CCC(CC)(C(=O)O)S(=O)(=O)c1ccc([C@@H](C)NC(=O)c2cc3c(Cl)cc(C)cc3n2C)cc1 [Example 07-001]
Reply: 14

###

target: PHGDH (Homo sapiens (Human), UniProt O43175); assay: 3-Phosphoglycerate Dehydrogenase (PHGDH) Fluorescence Intensity Assay, run at two NAD/3-PG ratios: PHGDH_HIGH_NAD/3-PG (250 μM NAD/500 μM 3-PG) and PHGDH_500_NAD/3-PG (500 μM NAD/500 μM 3-PG); type: biochemical; conditions: 250 μM NAD/500 μM 3-PG; read-out: IC50 (PHGDH_HIGH_NAD/3-PG)
Outcome Measure: IC50 (nM)
Express your answer in nM, writing the number without its unit.

Completed entries (count: 6):
molecule=COC(=O)C[S@@+]([O-])c1ccc([C@@H](CO)NC(=O)c2cc3c(Cl)cc(C)cc3n2C)cc1 outcome_measure=IC50 endpoint_value=447
molecule="CC(C)OC(=O)C(C)S(=O)(=O)c1ccc([C@@H](C)NC(=O)c2cc(-c3ccccc3)nn2C)cc1 (stereo partly shown)" outcome_measure=IC50 endpoint_value=78200
molecule=COC(=O)CS(=O)(=O)c1ccc([C@@H](C)NC(=O)c2cc3c(Cl)cc(C)c(C)c3n2C)cc1 outcome_measure=IC50 endpoint_value=583
molecule=Cc1cc2c(cc(C(=O)N[C@H](CO)c3ccc(S(=O)(=O)CC(=O)O)cc3)n2C)c(F)c1F outcome_measure=IC50 endpoint_value=8
molecule=C[C@@H](NC(=O)c1cc(-c2ccc(F)cc2)nn1C)c1ccc(S(=O)(=O)C(C)(C)C(=O)O)cc1 outcome_measure=IC50 endpoint_value=161
molecule=COC(=O)CS(=O)(=O)c1ccc([C@@H](C)NC(=O)c2cc3c(Cl)cc(-c4cnn(C)c4)cc3n2C)cc1 outcome_measure=IC50 endpoint_value=905

Consider the record given below.
Task item: Please give the measured IC50 for this molecule: Cc1cc(Cl)c2cc(C(=O)N[C@H](CO)c3ccc(S(=O)(=O)CC(=O)O)cc3)n(C)c2c1
Reply: 6

###

Listing: IC50 of selected molecules
biological target: PHGDH (Homo sapiens (Human)); experiment: 3-Phosphoglycerate Dehydrogenase (PHGDH) Fluorescence Intensity Assay, run at two NAD/3-PG ratios: PHGDH_HIGH_NAD/3-PG (250 μM NAD/500 μM 3-PG) and PHGDH_500_NAD/3-PG (500 μM NAD/500 μM 3-PG); assay type: biochemical; settings: 250 μM NAD/500 μM 3-PG; read-out: IC50 (PHGDH_HIGH_NAD/3-PG)
Just the number please, in nM, no unit attached.

molecule=CC(C)OC(=O)C(C)(C)S(=O)(=O)c1ccc([C@@H](C)NC(=O)c2cc(-c3ccccc3)nn2C)cc1 outcome_measure=IC50 endpoint_value=15900
molecule=COC(=O)C(C)(C)S(=O)(=O)c1ccc([C@@H](CO)NC(=O)c2cc(-c3ccc(F)cc3)nn2C)cc1 outcome_measure=IC50 endpoint_value=8340
molecule=COC(=O)C[S@@+]([O-])c1ccc([C@@H](C)NC(=O)c2cc3c(Cl)cc(C)cc3n2C)cc1 outcome_measure=IC50 endpoint_value=1120
molecule=CC(=O)OCC(COC(C)=O)COC(=O)CS(=O)(=O)c1ccc([C@@H](C)NC(=O)c2cc3c(Cl)cc(C)cc3n2C)cc1 outcome_measure=IC50 endpoint_value=431
molecule=CC(=O)OCCOC(=O)CS(=O)(=O)c1ccc([C@@H](C)NC(=O)c2cc3c(Cl)cc(C)cc3n2C)cc1 outcome_measure=IC50 endpoint_value=230
molecule=Cc1cc2c(cc(C(=O)N[C@H](CO)c3ccc(S(=O)(=O)C(C)(C)C(=O)O)cc3)n2C)c(Cl)c1Cl outcome_measure=IC50 endpoint_value=4
molecule=Cc1cc(Cl)c2cc(C(=O)N[C@H](C)c3ccc(S(=O)(=O)C4(C(=O)O)CCCC4)cc3)n(C)c2c1 outcome_measure=IC50 endpoint_value=6
molecule=COC(=O)C[S@+]([O-])c1ccc([C@@H](CO)NC(=O)c2cc3c(Cl)c(Cl)c(C)cc3n2C)cc1 outcome_measure=IC50 endpoint_value=89
molecule="COC(=O)C[S+]([O-])c1ccc([C@@H](CO)NC(=O)c2cc3c(Cl)c(Cl)c(C)cc3n2C)cc1 (stereo partly drawn)" outcome_measure=IC50 endpoint_value=98
molecule=COC(=O)CS(=O)(=O)c1ccc([C@H](C)NC(=O)c2cc3c(Cl)c(Cl)c(C)cc3n2C)cc1 outcome_measure=IC50 endpoint_value=6720

Task item: Please report the recorded IC50 for COC(=O)C(C)S(=O)(=O)c1ccc([C@@H](C)NC(=O)c2cc3c(Cl)cc(C)cc3n2C)cc1 (stereo partly drawn) .
Reply: 1680

Task item: Moving on to the next molecule: C[C@@H](NC(=O)c1cc2c(Cl)cc(N3CCN(C)CC3)cc2n1C)c1ccc(S(=O)(=O)CC(=O)O)cc1
Reply: 84

Task item: And Cc1cc(Cl)c2cc(C(=O)N[C@H](C)c3ccc(S(=O)(=O)CC(=O)OCc4ccncc4)cc3)n(C)c2c1 ?
Reply: 175

Task item: Try COC(=O)CS(=O)(=O)c1ccc([C@@H](CO)NC(=O)c2cc3c(Cl)c(Cl)c(C)cc3n2C)cc1 next.
Reply: 121

Task item: Also need Cc1cc(Cl)c2cc(C(=O)N[C@H](CO)c3ccc(S(=O)(=O)CC(=O)OCCO)cc3)n(C)c2c1 , thanks.
Reply: 52

Task item: Then CCOC(=O)CS(=O)(=O)c1ccc([C@@H](C)NC(=O)c2cc3c(Cl)cc(-c4cnn(C)c4)cc3n2C)cc1 ?
Reply: 815

Task item: Queued: Cc1cc(Cl)c2cc(C(=O)N[C@H](C)c3ccc(S(=O)(=O)CC(=O)OCCOCCO)cc3)n(C)c2c1
Reply: 197

Task item: Record: Cc1cc(Cl)c2cc(C(=O)N[C@H](CO)c3ccc([S+]([O-])CC(=O)OC(C)C)cc3)n(C)c2c1 (stereo partly drawn)
Reply: 695

Task item: How about this molecule: Cc1cc(Cl)c2cc(C(=O)N[C@H](C)c3ccc(S(=O)(=O)CC(=O)O[C@@H]4CCOC4)cc3)n(C)c2c1
Reply: 250

Task item: Try COC(=O)C(C)(C)S(=O)(=O)c1ccc([C@@H](C)NC(=O)c2cc3c(Cl)cc(C)cc3n2C)cc1 next.
Reply: 4520

Task item: Record: CCOC(=O)CS(=O)(=O)c1ccc([C@@H](C)NC(=O)c2cc(-c3ccc(F)cc3)nn2C)cc1
Reply: 3100

Task item: What do you get for COC(=O)CS(=O)(=O)c1ccc([C@@H](CO)NC(=O)c2cc3c(Cl)c(Cl)c(C)nc3n2C)cc1 ?
Reply: 216

Value source: patent US11304929B2
